test.target: UniProt P00735
measurement.description: Determination of the inhibitory constants for thrombin (method of Stürzebecher et al. 1997)
Type: biochemical
Excerpt: The Ki values are the average of at least three determinations.
pKi: −log10 of the molar value. Where a name gives a salt, the structure may show the parent alone.
assay.metric: pKi

Solved entries:
- compound: "N=C(N)c1ccc(CNC(=O)CNC(=O)[C@@H](CCc2ccccc2)NS(=O)(=O)Cc2cccnc2)cc1 [Compound 9, 3-PMs-dhomoPhe-Gly-4Amba×2 TFA]"
  assay.metric: "pKi"
  recorded.measurement: 5.23
- compound: "N=C(N)c1ccc(CNC(=O)CNC(=O)C(CCc2cccnc2)NS(=O)(=O)Cc2ccccc2)cc1 (stereo not shown)"
  assay.metric: "pKi"
  recorded.measurement: 5.70
- compound: "CCOC(=O)CC[C@H](NC(=O)[C@@H](CCc1ccc(O)cc1)NS(=O)(=O)Cc1ccccc1)C(=O)NCc1ccc(C(=N)N)cc1"
  assay.metric: "pKi"
  recorded.measurement: 6.00
- compound: "N=C(N)c1ccc(CNC(=O)CNC(=O)C(CCc2ccncc2)NS(=O)(=O)Cc2ccc(CC(=O)O)cc2)cc1 (stereo not shown)"
  assay.metric: "pKi"
  recorded.measurement: 4.42
- compound: "N=C(N)c1ccc(CNC(=O)[C@H](CCCc2ccccc2)NC(=O)C(CCc2ccncc2)NS(=O)(=O)Cc2ccccc2)cc1 (stereo partly shown)"
  assay.metric: "pKi"
  recorded.measurement: 6.74

1 = CS(=O)(=O)N[C@H](CCc1ccccc1)C(=O)NCC(=O)NCc1ccc(C(=N)N)cc1
2 = N=C(N)c1ccc(CNC(=O)CNC(=O)[C@H](CCc2ccccc2)NS(=O)(=O)Cc2ccccc2)cc1
**Query** Hi, I'm comparing 1 with 2 and wondering which one has the bigger number for pKi. Any idea? Reply with the label of the item you choose.
**Result** 1
(1: 5.89, 2: 4.96)
